// peptide exchange yield lookup, one value per entry
TARGET OF ASSAY: T1, HLA-A*02:01 (human)
T1 construct: MHC class I monomer made peptide-receptive by UV cleavage of a UV-sensitive ligand; also called peptide-receptive MHC molecules
TEST NAME: UV-ligand exchange ELISA (anti-β2m), peptide exchange yield grade
Square brackets hold non-standard residues; d marks the D form. Ends that are not written are not given here. pS = N[C@@H](COP(=O)(O)O)C(=O)O

Look over these answered cases.
[[record]]
binder = "AVIEHLERL [peptide AVIEHLERL (SEQ ID NO: 141)]"
observed_measurement = "≥ 75%"

[[record]]
binder = "SLMGMVLKL [peptide SLMGMVLKL (SEQ ID NO: 122)]"
observed_measurement = "50 to 75%"

[[record]]
binder = "SLNKWIFTV [peptide SLNKWIFTV (SEQ ID NO: 182)]"
observed_measurement = "≥ 75%"

[[record]]
binder = "VLIDHRWVL [peptide VLIDHRWVL (SEQ ID NO: 21)]"
observed_measurement = "50 to 75%"

[[record]]
binder = "VLDEDEPRFL [peptide VLDEDEPRFL (SEQ ID NO: 60)]"
observed_measurement = "20 to 50%"

[[record]]
binder = "RLLDFPEAMVL [peptide RLLDFPEAMVL (SEQ ID NO: 165)]"
observed_measurement = "≥ 75%"

[[record]]
binder = "KMLDEILLQL [peptide KMLDEILLQL (SEQ ID NO: 164)]"
observed_measurement = "≥ 75%"

[[record]]
binder = "SLISEKILL [peptide SLISEKILL (SEQ ID NO: 106)]"
observed_measurement = "50 to 75%"

[[record]]
binder = "FLAELPGSLSL [peptide FLAELPGSLSL (SEQ ID NO: 6)]"
observed_measurement = "50 to 75%"

[[record]]
binder = "RLL[pS]PLSSA (Phosphopeptide) [peptide RLLJPLSSA (SEQ ID NO: 179)]"
observed_measurement = "50 to 75%"


Provide only the value of recorded peptide exchange yield for RLWTEIPTAI [peptide RLWTEIPTAI (SEQ ID NO: 71)]
50 to 75%

Provide only the value of recorded peptide exchange yield for VLLNEILEQV [peptide VLLNEILEQV (SEQ ID NO: 139)]
50 to 75%
